Biological target: porcine pancreatic elastase (Sus scrofa)
Sequence (P00772 27-266): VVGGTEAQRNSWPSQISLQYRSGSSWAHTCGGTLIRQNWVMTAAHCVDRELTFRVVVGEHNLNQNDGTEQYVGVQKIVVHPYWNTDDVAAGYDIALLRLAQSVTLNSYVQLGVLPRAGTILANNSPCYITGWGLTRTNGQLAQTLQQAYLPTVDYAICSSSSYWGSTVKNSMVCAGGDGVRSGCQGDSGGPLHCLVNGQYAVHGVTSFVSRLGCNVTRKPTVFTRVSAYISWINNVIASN
Experiment: Elastase inhibitory activity of peptides (AAApNA hydrolysis; IC50, Ki, residual activity)
Type: biochemical
Details: peptide 0.001 μM; elastase 0.5 μM, AAApNA 1 mM
Experimental: The inhibition constants of various synthetic active peptide inhibitors (molecular scaffolds) against seine proteases were measured. […] Experiments for α-chymotrypsin and bovine trypsin inhibition were measured in 20 mM CaCl2, 50 mM Tris-HCl buffer (pH 7.8), and that for porcine elastase inhibition was measured in 50 mM Tris-HCl buffer (pH 8.0). The concentration of the peptide was measured using optical density (OD) at 280 nm. […]
Bridge positions count the residues as written; N and C are the ends. Peptide text beside a SMILES is read from it.
Residual activity of elastase by entry:
Please respond with the number in % and leave the unit unwritten.

A selection of reference data follows.
CC[C@H](C)[C@@H]1NC(=O)[C@@H]2CCCN2C(=O)[C@@H]2CCCN2C(=O)[C@H]([C@@H](C)CC)NC(=O)[C@H](CO)NC(=O)[C@H](C)NC(=O)[C@H]([C@@H](C)O)NC(=O)[C@@H](NC(=O)[C@@H](N)C(C)C)CSSC[C@@H](C(=O)N[C@@H](CCC(N)=O)C(=O)O)NC1=O [EC22] (H-VCTASIPPICQ-OH; disulfide 2-10; C-terminus assumed) | 100.1
CC[C@H](C)[C@H](N)C(=O)N[C@H]1CSSC[C@@H](C(=O)N[C@@H](CCC(N)=O)C(=O)O)NC(=O)[C@H](CCC(N)=O)NC(=O)[C@@H]2CCCN2C(=O)[C@@H]2CCCN2C(=O)[C@H]([C@@H](C)CC)NC(=O)[C@H](CO)NC(=O)[C@H](C)NC(=O)[C@H]([C@@H](C)O)NC1=O [EC19] (H-ICTASIPPQCQ-OH; disulfide 2-10; N-terminus and C-terminus assumed) | 99.9

Moving on to another compound below.
Exam item: Param item = CC[C@H](C)[C@H](N)C(=O)N[C@H]1CSSC[C@@H](C(=O)N[C@@H](CCC(N)=O)C(=O)O)NC(=O)[C@H]([C@@H](C)CC)NC(=O)[C@@H]2CCCN2C(=O)[C@@H]2CCCN2C(=O)[C@H]([C@@H](C)CC)NC(=O)[C@H](CO)NC(=O)[C@H](C)NC(=O)[C@H]([C@@H](C)O)NC1=O [EC23] (H-ICTASIPPICQ-OH; disulfide 2-10; C-terminus assumed) ; retrieve measured Residual activity of elastase.
Marked response: 103.0
